Origin of measurements: PubChem BioAssay AID1016

# Test system: alkaline phosphatase, intestinal [Bos taurus]
# TEST_NAME: IAP enzyme activity enhancers – biochemical, bovine IAP, CDP-star luminescence, primary screen (AID 1016)
# MEASUREMENT_SETUP: purified bovine IAP, 30 min, at 20 µM, fold of DMSO-control signal, blank-subtracted
In all, about 200,000 compounds went through this assay and about 330 (0.17%) were called active.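 How the source made its calls: active means activation factor of 2 or more at 20 µM, a signal rise over negative controls twice the positive control's; inactive means the rest.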 Many of the other results were omitted from the sample, so actives are more common in it than they were.
Outcomes: Y = active, N = inactive

MOLECULE	CLASSIFICATION
O=C(NCCC1=CCCCC1)C1CCN(Cc2cnn(-c3ccccc3)c2-n2cccc2)CC1	Y
O=C(COC(=O)c1cc([N+](=O)[O-])ccc1NCc1ccccc1)NC1CCCCC1	N
N#Cc1c(-c2ccc(Cl)cc2)c2c([nH]c1=S)CCCC2	N
CC(=O)NC1=NN(C(C)=O)C(C)(c2ccc(C)cc2)S1 (stereo unspecified)	N
CN(C)c1ccc(NC(=O)CSc2n[nH]c(-c3ccco3)n2)cc1	N
Cc1ccc(OCCCC(=O)NC(C)c2ccccc2)c(C)c1 (stereo unspecified)	N
